// data source = patent US9840515B2

measured_on: UniProtKB Q15139
Sequence (Q15139 whole entry): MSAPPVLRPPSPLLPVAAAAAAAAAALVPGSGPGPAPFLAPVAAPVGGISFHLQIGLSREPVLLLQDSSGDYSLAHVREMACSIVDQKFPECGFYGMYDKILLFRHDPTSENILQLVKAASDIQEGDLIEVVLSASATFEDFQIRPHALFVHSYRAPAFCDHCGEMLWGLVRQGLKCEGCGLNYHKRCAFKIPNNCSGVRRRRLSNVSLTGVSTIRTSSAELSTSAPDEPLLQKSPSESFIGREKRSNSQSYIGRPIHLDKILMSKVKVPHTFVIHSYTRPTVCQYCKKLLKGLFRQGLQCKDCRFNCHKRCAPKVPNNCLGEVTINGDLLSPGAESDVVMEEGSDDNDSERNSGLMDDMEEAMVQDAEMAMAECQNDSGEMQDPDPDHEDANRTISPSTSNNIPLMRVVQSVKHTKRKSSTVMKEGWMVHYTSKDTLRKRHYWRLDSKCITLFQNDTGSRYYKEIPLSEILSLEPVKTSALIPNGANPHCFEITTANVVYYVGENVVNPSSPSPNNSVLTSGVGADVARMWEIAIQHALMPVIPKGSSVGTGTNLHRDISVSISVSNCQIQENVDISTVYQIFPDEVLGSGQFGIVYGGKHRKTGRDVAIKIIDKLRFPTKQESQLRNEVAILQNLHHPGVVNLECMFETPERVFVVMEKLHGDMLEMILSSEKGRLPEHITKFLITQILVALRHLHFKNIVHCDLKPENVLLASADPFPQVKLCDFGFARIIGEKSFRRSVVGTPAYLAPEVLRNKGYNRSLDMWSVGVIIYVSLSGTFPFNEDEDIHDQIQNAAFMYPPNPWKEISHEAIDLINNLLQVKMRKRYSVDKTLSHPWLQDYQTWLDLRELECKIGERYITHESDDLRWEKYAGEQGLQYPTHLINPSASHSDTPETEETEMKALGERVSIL
experiment: IMAP-FP PKD1 assay
Assay type: biochemical
measurement_type: IC50 (µM)

molecule	test_result
C/C=C/c1c(O)ccc2oc3c(c12)CCCNC3=O [kb-NB96-30]	1

I = O=C1NCCCc2c1oc1ccc(O)c(F)c21 [kb-NB96-21]
II = O=C1NCCC(=NNc2ccccc2)c2c1oc1ccc(O)cc21 [kb-NB142-05]
III = O=C1NCCC(=O)c2c1oc1ccc(O)cc21 [kb-NB123-63]
**Query** # rank by IC50, ascending (min first) Rank them, then answer with their labels in that order.
**Result** I, III, II
